- measured target: Human FAAH (Homo sapiens)
- Construct: made in house
- assay protocol: FAAH assay, kinetic analysis of irreversible inhibition (kinact/Ki)
- Type: biochemical
- particulars: additional data table, unit inferred, read-out: hFAAH_Kinact/Ki
value type: kinact/KI (M⁻¹ s⁻¹)

I: Cc1noc(NC(=O)N2CCC(=Cc3cccc(OCCCC(F)(F)F)c3)CC2)c1C
II: Cc1oncc1NC(=O)N1CCC(=Cc2cccc(OCC(C)CC(F)(F)F)c2)CC1 (stereo not shown)
III: Cc1oncc1NC(=O)N1CCC(=Cc2cccc(OC(C)Cc3ccccc3)c2)CC1 (stereo not shown)
IV: Cc1oncc1NC(=O)N1CCC(=Cc2cccc(OCC3CCCCO3)c2)CC1 (stereo not shown)
V: Cc1oncc1NC(=O)N1CCC(=Cc2cccc(OCCCC(F)(F)F)c2)CC1
Falling order of kinact/KI, please. Answer format: the labels, ordered as requested.
I, V, II, III, IV

1: Cc1oncc1NC(=O)N1CCC(=Cc2cccc(OCCOC(C)C)c2)CC1
2: Cc1noc(NC(=O)N2CCC(=Cc3cccc(OCCc4ccc(F)cc4)c3)CC2)c1C
3: Cn1nnnc1NC(=O)N1CCC(=Cc2cccc(OCC3CCCCO3)c2)CC1 (stereo not shown)
Sort (3 compounds) by kinact/KI: min first. Answer format: the labels, ordered as requested.
1, 3, 2
(1: 2670 M⁻¹ s⁻¹, 3: 7490 M⁻¹ s⁻¹, 2: 12800 M⁻¹ s⁻¹)

P: Cc1oncc1NC(=O)N1CCC(=Cc2cccc(OCCCc3cnoc3)c2)CC1
Q: CCCCOc1cccc(C=C2CCN(C(=O)Nc3onc(C)c3C)CC2)c1
Select the item whose kinact/KI value is smaller, choosing between P and Q . Record your answer as the label of the chosen record.
P
(P: 3990 M⁻¹ s⁻¹, Q: 14800 M⁻¹ s⁻¹)

1: Cc1noc(NC(=O)N2CCC(=Cc3cccc(OCC4CCCC4)c3)CC2)c1C
2: Cc1noc(NC(=O)N2CCC(=Cc3cccc(OCCc4cccc(F)c4)c3)CC2)c1C
Among 1 and 2 , which shows a numerically higher kinact/KI result? Record your answer as the label of the chosen record.
2

====

- measured target: UniProt P97612
- assay protocol: FAAH assay, rFAAH kobs/I
- Type: biochemical
- particulars: additional data table, unit not given
value type: FAAH_KINACTR:rFAAH:kobs/I

Reference set, count: 10
molecule	value type	readout number
CCCCOc1cccc(C=C2CCN(C(=O)Nc3cnoc3C)CC2)c1	FAAH_KINACTR:rFAAH:kobs/I	12.9
Cc1noc(NC(=O)N2CCC(=Cc3cccc(OCCC4CC4)c3)CC2)c1C	FAAH_KINACTR:rFAAH:kobs/I	2660
Cc1noc(NC(=O)N2CCC(=Cc3cccc(OCCCc4cnoc4)c3)CC2)c1C	FAAH_KINACTR:rFAAH:kobs/I	2580
Cc1noc(NC(=O)N2CCC(=Cc3cccc(OCC(C)CC(F)(F)F)c3)CC2)c1C (centres unmarked)	FAAH_KINACTR:rFAAH:kobs/I	2530
O=C(Nc1cnoc1)N1CCC(=Cc2cccc(OCC3CCCCO3)c2)CC1 (centres unmarked)	FAAH_KINACTR:rFAAH:kobs/I	18
Cc1noc(NC(=O)N2CCC(=Cc3cccc(OC4CCC(F)(F)CC4)c3)CC2)c1C	FAAH_KINACTR:rFAAH:kobs/I	1750
Cn1nnnc1NC(=O)N1CCC(=Cc2cccc(OCC3CCCCO3)c2)CC1 (centres unmarked)	FAAH_KINACTR:rFAAH:kobs/I	1610
Cc1oncc1NC(=O)N1CCC(=Cc2cccc(OCCc3ccc(F)cc3)c2)CC1	FAAH_KINACTR:rFAAH:kobs/I	52.7
Cc1noc(NC(=O)N2CCC(=Cc3cccc(OCCOC(C)C)c3)CC2)c1C	FAAH_KINACTR:rFAAH:kobs/I	4760
Cc1noc(NC(=O)N2CCC(=Cc3cccc(OCCC(C)C)c3)CC2)c1C	FAAH_KINACTR:rFAAH:kobs/I	2590

P: CCCCOc1cccc(C=C2CCN(C(=O)Nc3onc(C)c3C)CC2)c1
Q: Cc1noc(NC(=O)N2CCC(=Cc3cccc(OC(C)Cc4ccccc4)c3)CC2)c1C (centres unmarked)
Select the item whose FAAH_KINACTR:rFAAH:kobs/I value is smaller, choosing between P and Q . Record your answer as the label of the chosen record.
P

I: Cc1oncc1NC(=O)N1CCC(=Cc2cccc(OC3CCC(C)(C)CC3)c2)CC1
II: Cc1oncc1NC(=O)N1CCC(=Cc2cccc(OCC3CCC(F)(F)CC3)c2)CC1
Among I and II , which shows a numerically higher FAAH_KINACTR:rFAAH:kobs/I result? Record your answer as the label of the chosen record.
I
(I: 160, II: 16.2)

I: Cc1cccc(OCCOc2cccc(C=C3CCN(C(=O)Nc4cnoc4C)CC3)c2)c1
II: Cc1oncc1NC(=O)N1CCC(=Cc2cccc(OC(C)Cc3ccccc3)c2)CC1 (centres unmarked)
Select the item whose FAAH_KINACTR:rFAAH:kobs/I value is smaller, choosing between I and II . Record your answer as the label of the chosen record.
I
(I: 57.1, II: 208)

====

- measured target: rFAAH (Rattus norvegicus, UniProt P97612)
- Sequence (P97612 whole entry): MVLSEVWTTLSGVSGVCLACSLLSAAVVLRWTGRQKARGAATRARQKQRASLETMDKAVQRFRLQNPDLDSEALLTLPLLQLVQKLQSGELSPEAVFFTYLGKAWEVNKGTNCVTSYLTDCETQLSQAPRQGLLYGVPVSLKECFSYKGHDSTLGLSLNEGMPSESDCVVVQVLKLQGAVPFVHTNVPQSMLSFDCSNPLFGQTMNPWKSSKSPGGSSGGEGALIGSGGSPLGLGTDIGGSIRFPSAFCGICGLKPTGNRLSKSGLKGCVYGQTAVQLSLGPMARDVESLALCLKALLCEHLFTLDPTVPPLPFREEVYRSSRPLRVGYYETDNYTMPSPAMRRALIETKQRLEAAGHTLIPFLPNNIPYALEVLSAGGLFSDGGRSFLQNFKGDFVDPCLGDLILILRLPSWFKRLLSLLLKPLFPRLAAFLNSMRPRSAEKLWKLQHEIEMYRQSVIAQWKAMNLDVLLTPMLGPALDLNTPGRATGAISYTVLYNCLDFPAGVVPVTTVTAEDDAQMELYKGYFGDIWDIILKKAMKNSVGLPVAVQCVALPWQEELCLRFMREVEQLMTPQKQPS
- assay protocol: FAAH assay, rFAAH kobs/I
- Type: biochemical
- particulars: additional data table, unit not given
value type: FAAH_KINACTR:rFAAH:kobs/I

Reference set, count: 3
structure smiles	measured target	readout number
Cc1noc(NC(=O)N2CCC(=Cc3cccc(OC4CCC(C)(C)CC4)c3)CC2)c1C	rFAAH (Rattus norvegicus, UniProt P97612)	4910
Cc1noc(NC(=O)N2CCC(=Cc3cccc(OCC4CCCC4)c3)CC2)c1C	rFAAH (Rattus norvegicus, UniProt P97612)	2360
Cc1noc(NC(=O)N2CCC(=Cc3cccc(OCCc4cccc(F)c4)c3)CC2)c1C	rFAAH (Rattus norvegicus, UniProt P97612)	9280

P: Cc1oncc1NC(=O)N1CCC(=Cc2cccc(OC3CCC(F)(F)CC3)c2)CC1
Q: Cc1noc(NC(=O)N2CCC(=Cc3cccc(OCCCC(F)(F)F)c3)CC2)c1C
R: Cc1noc(NC(=O)N2CCC(=Cc3cccc(OCCc4ccc(F)cc4)c3)CC2)c1C
S: Cc1oncc1NC(=O)N1CCC(=Cc2cccc(OCCc3cccc(F)c3)c2)CC1
Sort (4 compounds) by FAAH_KINACTR:rFAAH:kobs/I: min first. Answer format: the labels, ordered as requested.
P, S, Q, R

====

- measured target: Human FAAH (Homo sapiens, UniProt O00519)
- Construct: made in house
- Sequence (O00519 32-579 limits assumed): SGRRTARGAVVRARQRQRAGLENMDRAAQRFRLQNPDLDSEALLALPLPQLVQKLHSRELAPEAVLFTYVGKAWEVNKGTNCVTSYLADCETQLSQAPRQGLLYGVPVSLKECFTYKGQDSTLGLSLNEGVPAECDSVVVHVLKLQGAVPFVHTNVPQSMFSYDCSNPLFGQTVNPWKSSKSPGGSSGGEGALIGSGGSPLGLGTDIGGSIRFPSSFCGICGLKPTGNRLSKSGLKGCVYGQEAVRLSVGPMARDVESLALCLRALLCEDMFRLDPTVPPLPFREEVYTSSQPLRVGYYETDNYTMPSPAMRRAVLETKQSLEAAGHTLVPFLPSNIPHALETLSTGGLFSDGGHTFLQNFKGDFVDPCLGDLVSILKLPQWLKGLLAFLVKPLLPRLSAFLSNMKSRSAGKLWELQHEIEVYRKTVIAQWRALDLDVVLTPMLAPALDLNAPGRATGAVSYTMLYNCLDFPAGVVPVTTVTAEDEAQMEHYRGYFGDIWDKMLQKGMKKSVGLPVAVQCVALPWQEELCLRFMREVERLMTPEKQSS
- assay protocol: FAAH assay, kinetic analysis of irreversible inhibition (kinact/Ki)
- Format: biochemical
- particulars: additional data table, unit inferred, read-out: hFAAH_Kinact/Ki
value type: kinact/KI (M⁻¹ s⁻¹)

Reference set, count: 5
compound	measured target	units label	kinact/KI
CCCC(C)Oc1cccc(C=C2CCN(C(=O)Nc3onc(C)c3C)CC2)c1 (stereo not shown)	Human FAAH (Homo sapiens, UniProt O00519)	M⁻¹ s⁻¹	4600
CCCCOc1cccc(C=C2CCN(C(=O)Nc3cnoc3C)CC2)c1	Human FAAH (Homo sapiens, UniProt O00519)	M⁻¹ s⁻¹	2120
Cc1oncc1NC(=O)N1CCC(=Cc2cccc(OCC3CCC(F)(F)CC3)c2)CC1	Human FAAH (Homo sapiens, UniProt O00519)	M⁻¹ s⁻¹	1730
Cc1noc(NC(=O)N2CCC(=Cc3cccc(OC4CCC(C)(C)CC4)c3)CC2)c1C	Human FAAH (Homo sapiens, UniProt O00519)	M⁻¹ s⁻¹	959
Cc1oncc1NC(=O)N1CCC(=Cc2cccc(OC3CCC(C)(C)CC3)c2)CC1	Human FAAH (Homo sapiens, UniProt O00519)	M⁻¹ s⁻¹	2860

P: Cc1oncc1NC(=O)N1CCC(=Cc2cccc(OCCc3ccc(F)cc3)c2)CC1
Q: Cc1cccc(OCCOc2cccc(C=C3CCN(C(=O)Nc4cnoc4C)CC3)c2)c1
Select the item whose kinact/KI value is smaller, choosing between P and Q . Record your answer as the label of the chosen record.
P
(P: 1480 M⁻¹ s⁻¹, Q: 10600 M⁻¹ s⁻¹)

I: O=C(Nc1cnoc1)N1CCC(=Cc2cccc(OC3CCC(F)(F)CC3)c2)CC1
II: Cc1noc(NC(=O)N2CCC(=Cc3cccc(OCCOC(C)C)c3)CC2)c1C
Among I and II , which shows a numerically higher kinact/KI result? Record your answer as the label of the chosen record.
II
(II: 12700 M⁻¹ s⁻¹, I: 1530 M⁻¹ s⁻¹)

====

- measured target: Human FAAH (Homo sapiens, UniProt O00519)
- Construct: made in house
- assay protocol: FAAH assay, kinetic analysis of irreversible inhibition (kinact/Ki)
- Format: biochemical
- particulars: additional data table, unit inferred, read-out: hFAAH_Kinact/Ki
- Description: A FAAH assay may be carried out in 384-well clear polystyrene plates in a total volume of 50 μl per well. All percents are by volume. […] The reactions is then incubated at 30° C. and the absorbance at 340 nm is collected over a period of 90 min with readings taken in 30-second intervals using SpectraMax Plus^384 Microplate Spectrophotometer (Molecular Devices, Sunnyvale, Calif.). […]
value type: kinact/KI (M⁻¹ s⁻¹)

compound	kinact/KI, M⁻¹ s⁻¹
Cc1ncsc1CCOc1cccc(C=C2CCN(C(=O)Nc3cnoc3)CC2)c1	514
Cc1oncc1NC(=O)N1CCC(=Cc2cccc(OC3CCC(F)(F)CC3)c2)CC1	2900

I: Cc1noc(NC(=O)N2CCC(=Cc3cccc(OCCCc4cnoc4)c3)CC2)c1C
II: O=C(Nc1cnoc1)N1CCC(=Cc2cccc(OCC3CCCCO3)c2)CC1 (stereo not shown)
Select the item whose kinact/KI value is smaller, choosing between I and II . Record your answer as the label of the chosen record.
II
(II: 384 M⁻¹ s⁻¹, I: 7170 M⁻¹ s⁻¹)
